Entry source: paper PMC11489206

experiment: Transport study across EpiIntestinal microtissues
run parameters: human
# efflux ratio at 60 min, 1 µM per entry

Below: 2 compounds and their reported efflux ratio at 60 min, 1 µM.
O=C(O)C(F)(F)C(F)(F)C(F)(F)C(F)(F)C(F)(F)C(F)(F)C(F)(F)F
0.96
O=S(=O)(O)C(F)(F)C(F)(F)C(F)(F)C(F)(F)C(F)(F)C(F)(F)C(F)(F)C(F)(F)F [PFOS, perfluorooctane sulfonate]
0.55

Ask | Let me know recorded efflux ratio at 60 min, 1 µM for O=S(=O)(O)C(F)(F)C(F)(F)C(F)(F)C(F)(F)C(F)(F)C(F)(F)F [PFHxS, perfluorohexane sulfonate] , thanks.
Reply | 1.13

Ask | # return recorded efflux ratio at 60 min, 1 µM for entry `O=C(O)C(F)(F)C(F)(F)C(F)(F)C(F)(F)C(F)(F)C(F)(F)C(F)(F)C(F)(F)F`
Reply | 0.89

Ask | Check the records and state efflux ratio at 60 min, 1 µM for O=C(O)C(F)(OC(F)(F)C(F)(F)C(F)(F)F)C(F)(F)F (centres unmarked) [HFPO-DA, hexafluoropropylene oxide dimer acid]
Reply | 0.9

---

This section presents molecules with their documented Papp B→A at 60 min, 1 µM values.
experiment: Transport study across hiPSC-derived IEC layers
run parameters: human

O=C(O)C(F)(F)C(F)(F)C(F)(F)C(F)(F)C(F)(F)C(F)(F)C(F)(F)C(F)(F)F
2.88 ×10⁻⁶ cm/s
O=C(O)C(F)(OC(F)(F)C(F)(F)C(F)(F)F)C(F)(F)F (centres unmarked) [HFPO-DA, hexafluoropropylene oxide dimer acid]
4.49 ×10⁻⁶ cm/s
O=S(=O)(O)C(F)(F)C(F)(F)C(F)(F)C(F)(F)C(F)(F)C(F)(F)F [PFHxS, perfluorohexane sulfonate]
6.71 ×10⁻⁶ cm/s
O=S(=O)(O)C(F)(F)C(F)(F)C(F)(F)C(F)(F)C(F)(F)C(F)(F)C(F)(F)C(F)(F)F [PFOS, perfluorooctane sulfonate]
0.82 ×10⁻⁶ cm/s

Switching to the query record.
Ask | Report Papp B→A at 60 min, 1 µM, nothing else, for this molecule: `O=C(O)C(F)(F)C(F)(F)C(F)(F)C(F)(F)C(F)(F)C(F)(F)C(F)(F)F`
Reply | 5.3 ×10⁻⁶ cm/s

---

experiment: Transport study across hiPSC-derived IEC layers
run parameters: human
reported metric: Papp B→A at 60 min, 10 µM (×10⁻⁶ cm/s)
Write the value in ×10⁻⁶ cm/s as a bare number.

CCCC(=O)Nc1ccc(OCC(O)CNC(C)C)c(C(C)=O)c1 (stereo not shown)
7.17
C=C[C@H]1C[N@@]2CC[C@H]1C[C@@H]2[C@@H](O)c1ccnc2ccc(OC)cc12
25.5
CCOC(=O)[C@H](CCc1ccccc1)N[C@@H](C)C(=O)N1CCC[C@H]1C(=O)O
3.68

Ask | Entry CC(C)NCC(O)COc1cccc2ccccc12 (stereo not shown) needs its Papp B→A at 60 min, 10 µM filled in; supply it.
Reply | 17.9

---

experiment: Transport study across Caco-2 cell layers
run parameters: human, Caco-2
Overview of reported Papp B→A at 60 min, 10 µM across a group of compounds:
The answer is to be given in ×10⁻⁶ cm/s; state only the numeric part.

Here are 3 compounds together with their reported answers.
CC(C)NCC(O)COc1cccc2ccccc12 (stereo not shown)
8.13
CCCC(=O)Nc1ccc(OCC(O)CNC(C)C)c(C(C)=O)c1 (stereo not shown)
3.09
CC(=O)CC(c1ccccc1)c1c(O)c2ccccc2oc1=O (stereo not shown)
24.5

API: the following record is the query input.
Ask | Kindly indicate its recorded Papp B→A at 60 min, 10 µM. Item: `CCOC(=O)[C@H](CCc1ccccc1)N[C@@H](C)C(=O)N1CCC[C@H]1C(=O)O`
Reply | 0.43
